Data provenance is patent US11395857B2.

# Assay procedure: Biodistribution of 177Lu-labeled αMSH analogues in mice bearing B16F10 mouse melanoma
# Type: in vivo, C57BL/6J mice
# Test context: male, mouse, seminal glands, iv, total radioactivity; 24 h p.i., C57BL/6J mice, B16F10 melanoma; read-out: Biodistribution, Seminal glands
Measured tissue uptake at 24 h accompanies every entry in the list below.
The reply should contain only the number, in %ID/g.

Just so you know, measured tissue uptake at 24 h for CCCC[C@H](NC(=O)CN1CCC(NC(=O)CN2CCN(CC(=O)O)CCN(CC(=O)O)CCN(CC(=O)O)CC2)CC1)C(=O)N[C@H]1CC(=O)NCCCC[C@@H](C(N)=O)N(C)C(=O)[C@H](Cc2c[nH]c3ccccc23)NC(=O)[C@H](CCCNC(=N)N)N(C)C(=O)[C@@H](Cc2ccccc2)NC(=O)[C@H](Cc2c[nH]cn2)NC1=O [^177Lu-labeled CCZ01106, metal not drawn] came out at 0.01

Record summary for CCCC[C@H](NC(=O)CN1CCC(NC(=O)CN2CCN(CC(=O)O)CCN(CC(=O)O)CCN(CC(=O)O)CC2)CC1)C(=O)N[C@H]1CC(=O)NCCCC[C@@H](C(N)=O)N(C)C(=O)[C@H](Cc2c[nH]c3ccccc23)N(C)C(=O)[C@H](CCCNC(=N)N)N(C)C(=O)[C@@H](Cc2ccccc2)NC(=O)[C@H](Cc2c[nH]cn2)N(C)C1=O [^177Lu-labeled CCZ01099, metal not drawn] : reported tissue uptake at 24 h = 0.01

Per the record, CCCC[C@H](NC(=O)CN1CCC(NC(=O)[C@H](CCCCNC(=O)CN2CCN(CC(=O)O)CCN(CC(=O)O)CCN(CC(=O)O)CC2)NC(=O)[C@H](CCC(=O)O)NC(=O)CCCc2ccc(I)cc2)CC1)C(=O)N[C@H]1CC(=O)NCCCC[C@@H](C(N)=O)NC(=O)[C@H](Cc2c[nH]c3ccccc23)NC(=O)[C@H](CCCNC(=N)N)NC(=O)[C@@H](Cc2ccccc2)NC(=O)[C@H](Cc2c[nH]cn2)NC1=O [^177Lu-labeled CCZ01082, metal not drawn] has tissue uptake at 24 h of 0.1

Looking up CCCC[C@H](NC(=O)CN1CCC(NC(=O)[C@H](CCCCNC(=O)CN2CCN(CC(=O)O)CCN(CC(=O)O)CCN(CC(=O)O)CC2)NC(=O)[C@H](CCC(=O)O)NC(=O)CCCc2ccc(I)cc2)CC1)C(=O)N[C@H]1CC(=O)NCCCC[C@@H](C(N)=O)N(C)C(=O)[C@H](Cc2c[nH]c3ccccc23)NC(=O)[C@H](CCCNC(=N)N)N(C)C(=O)[C@@H](Cc2ccccc2)NC(=O)[C@H](Cc2c[nH]cn2)NC1=O [^177Lu-labeled CCZ01118, metal not drawn] , I found its tissue uptake at 24 h recorded as 0.04
